Here the recorded Cmax is given for each entry.
test summary: Pharmacokinetic study in rats after intragastric administration of Farfarae Flos extract (plasma, LC-MS/MS)
Format: in vivo
study conditions: male, rat, plasma, po, 3.9 g/kg, oral Farfarae Flos extract 3.9 g·kg^−1, mean ± SD
readout label: Cmax (ng/mL)

compound=O=c1c(O[C@@H]2O[C@H](CO)[C@@H](O)[C@H](O)[C@H]2O)c(-c2ccc(O)c(O)c2)oc2cc(O)cc(O)c12 experimental_result=5.81
compound="O=C(C=Cc1ccc(O)c(O)c1)OC1CC(O)(C(=O)O)CC(O)C1OC(=O)C=Cc1ccc(O)c(O)c1 (stereo not shown)" experimental_result=47.3
compound=O=C(/C=C/c1ccc(O)c(O)c1)O[C@@H]1C[C@@](O)(C(=O)O)C[C@@H](O)[C@@H]1O experimental_result=74
compound=O=C(O)/C=C/c1ccc(O)c(O)c1 experimental_result=96.3

====

Here the recorded Freeze-thaw stability, percent remaining is given for each entry.
test summary: Stability of QC samples in rat plasma (24 h, freeze-thaw, 4 weeks)
Type: in vitro ADME
study conditions: low concentration level (3-30 ng·mL^−1), freeze-thaw cycles −20°C to 20°C, six replicates
readout label: Freeze-thaw stability, percent remaining (%)

compound=O=C(/C=C/c1ccc(O)c(O)c1)O[C@@H]1C[C@@](O)(C(=O)O)C[C@@H](O)[C@@H]1O readout_label="Freeze-thaw stability, percent remaining" experimental_result=111
compound="O=C(C=Cc1ccc(O)c(O)c1)OC1CC(O)(C(=O)O)CC(O)C1OC(=O)C=Cc1ccc(O)c(O)c1 (stereo not drawn)" readout_label="Freeze-thaw stability, percent remaining" experimental_result=106
compound=O=C(O)/C=C/c1ccc(O)c(O)c1 readout_label="Freeze-thaw stability, percent remaining" experimental_result=101
compound=O=C(/C=C/c1ccc(O)c(O)c1)O[C@H]1[C@H](O)C[C@](O)(C(=O)O)C[C@H]1O readout_label="Freeze-thaw stability, percent remaining" experimental_result=96.8
compound=C=C1[C@H](OC(=O)/C=C(\C)CC)C[C@@H](C(C)C)[C@@H]2[C@@H]([C@@H](C)OC(C)=O)C(=O)C[C@@H]12 readout_label="Freeze-thaw stability, percent remaining" experimental_result=83.9
compound=O=c1c(O[C@@H]2O[C@H](CO)[C@@H](O)[C@H](O)[C@H]2O)c(-c2ccc(O)c(O)c2)oc2cc(O)cc(O)c12 readout_label="Freeze-thaw stability, percent remaining" experimental_result=104

====

test summary: Pharmacokinetic study in rats after intragastric administration of Farfarae Flos extract (plasma, LC-MS/MS)
Format: in vivo
study conditions: rat plasma, oral Farfarae Flos extract 7.8 g·kg^−1, mean ± SD
Here the recorded AUC(0–24h) is given for each entry.
readout label: AUC(0–24h) (ng/mL ∗ h)

compound="C[C@@H]1O[C@@H](OC[C@H]2O[C@@H](Oc3c(-c4ccc(O)c(O)c4)oc4cc(O)cc(O)c4c3=O)[C@H](O)[C@@H](O)[C@@H]2O)[C@H](O)[C@H](O)[C@H]1O [Rutin, rutin]" uom="ng/mL ∗ h" experimental_result=104.04
compound="O=C(O)/C=C/c1ccc(O)c(O)c1 [Caffeic acid, caffeic acid]" uom="ng/mL ∗ h" experimental_result=473.5
compound="O=C(/C=C/c1ccc(O)c(O)c1)O[C@@H]1C[C@@](O)(C(=O)O)C[C@@H](O)[C@@H]1O [NCLA, neochlorogenic acid]" uom="ng/mL ∗ h" experimental_result=965.7
